# System name: human GluN1/GluN2B NMDA receptors (Homo sapiens, UniProt Q05586+Q13224)
# Sequence (Q13224 27-1484, other chains not shown): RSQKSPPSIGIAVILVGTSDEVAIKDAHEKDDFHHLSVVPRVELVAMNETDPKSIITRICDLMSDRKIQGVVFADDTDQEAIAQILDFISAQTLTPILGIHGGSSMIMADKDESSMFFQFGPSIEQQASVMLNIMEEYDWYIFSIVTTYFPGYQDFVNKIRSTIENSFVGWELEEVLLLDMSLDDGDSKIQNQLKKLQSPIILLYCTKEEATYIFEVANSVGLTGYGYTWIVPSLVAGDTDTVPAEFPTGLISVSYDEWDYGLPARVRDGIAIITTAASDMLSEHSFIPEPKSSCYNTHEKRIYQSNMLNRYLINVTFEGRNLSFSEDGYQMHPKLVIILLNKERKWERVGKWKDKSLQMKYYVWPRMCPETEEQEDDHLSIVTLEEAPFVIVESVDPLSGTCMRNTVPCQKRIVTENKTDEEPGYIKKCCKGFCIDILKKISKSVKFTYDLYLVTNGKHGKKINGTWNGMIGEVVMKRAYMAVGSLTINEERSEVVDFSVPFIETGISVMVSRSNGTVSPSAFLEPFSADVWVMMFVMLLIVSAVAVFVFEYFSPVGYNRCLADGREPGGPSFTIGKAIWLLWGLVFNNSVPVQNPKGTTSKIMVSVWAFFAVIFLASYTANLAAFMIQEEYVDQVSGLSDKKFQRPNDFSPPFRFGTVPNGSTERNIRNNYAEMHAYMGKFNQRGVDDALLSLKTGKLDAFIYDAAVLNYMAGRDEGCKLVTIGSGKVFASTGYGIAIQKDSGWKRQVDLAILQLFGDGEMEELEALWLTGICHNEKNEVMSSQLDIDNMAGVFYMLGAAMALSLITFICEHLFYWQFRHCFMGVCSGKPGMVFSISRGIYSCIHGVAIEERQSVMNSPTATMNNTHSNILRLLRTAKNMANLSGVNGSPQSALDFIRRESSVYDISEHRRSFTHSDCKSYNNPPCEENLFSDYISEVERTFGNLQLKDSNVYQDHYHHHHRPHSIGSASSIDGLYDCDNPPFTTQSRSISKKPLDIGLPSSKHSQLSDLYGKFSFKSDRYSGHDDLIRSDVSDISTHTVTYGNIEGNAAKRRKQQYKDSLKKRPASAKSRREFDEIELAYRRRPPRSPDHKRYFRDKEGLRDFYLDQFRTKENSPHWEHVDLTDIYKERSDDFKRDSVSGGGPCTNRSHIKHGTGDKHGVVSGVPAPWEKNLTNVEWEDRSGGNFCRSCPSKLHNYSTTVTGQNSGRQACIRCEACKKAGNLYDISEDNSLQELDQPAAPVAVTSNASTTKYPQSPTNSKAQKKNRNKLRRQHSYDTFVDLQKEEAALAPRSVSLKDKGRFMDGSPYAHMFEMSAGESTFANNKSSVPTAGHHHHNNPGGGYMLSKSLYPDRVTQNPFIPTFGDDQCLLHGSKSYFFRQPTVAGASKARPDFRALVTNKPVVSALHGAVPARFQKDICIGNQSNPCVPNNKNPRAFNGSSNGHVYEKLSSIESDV
# Test: Cell-based calcium flux (FLIPR) assay on cloned human NR1/NR2B ion channels expressed in mammalian cells
# Stated conditions: standard assay; human GluN1/GluN2B, calcium flux (FLIPR), glutamate ~EC80
Hi! Just check whether IC50 is below 0.3 µM. Below gives True, equal or above gives False.

Molecule: Cc1ccccc1-n1cc(COc2ncccn2)nn1
Qualitative label: False
//
Molecule: Cc1cccc(-n2cc(COc3ncc(C(C)(C)O)cn3)nn2)c1
Qualitative label: True
//
Molecule: Cc1cc(-n2cc(COc3ncc(C(C)(C)O)cn3)nn2)ccc1F
Qualitative label: True
//
Molecule: COc1cnc(OCc2nnn(-c3cccc(C(F)F)c3)c2C)nc1
Qualitative label: False
//
Molecule: Cc1nc(OCc2cn(-c3cccc(C(C)(F)F)c3)nn2)ncc1Cl
Qualitative label: True
//
Molecule: CCc1cnc(OCc2cn(-c3cccc(C(C)C)c3)nn2)nc1
Qualitative label: True
//
Molecule: FC(F)Oc1cc(-n2cc(COc3cccnn3)nn2)ccc1Cl
Qualitative label: False
//
Molecule: CC(N)c1ccnc(OCc2cn(-c3ccc(F)c(OC(F)F)c3)nn2)n1 (racemic)
Qualitative label: False
//
Molecule: Fc1cnc(NCc2cn(-c3cccc(C(F)F)c3)nn2)nc1
Qualitative label: False
//
Molecule: CC(F)(F)c1cc(-n2cc(COc3ncccn3)nn2)ccc1F
Qualitative label: True
//
Molecule: Cc1cnc(OCc2cn(-c3ccc(Cl)c(C(F)F)c3)nn2)nc1C
Qualitative label: True

----------
# System name: human GluN1/GluN2B NMDA receptors (Homo sapiens, UniProt Q05586+Q13224)
# Test: Cell-based calcium flux (FLIPR) assay on cloned human NR1/NR2B ion channels expressed in mammalian cells
# Stated conditions: standard assay; human GluN1/GluN2B, calcium flux (FLIPR), glutamate ~EC80
Lab note - cut at 0.1 µM for IC50: 1.0 if strictly below, 0.0 if not.

Substance smiles: CC(F)(F)c1cccc(-n2cc(COc3ncccn3)nn2)c1
Qualitative label: 0.0

Substance smiles: C[C@@H](Oc1ncc(Cl)cn1)c1cn(-c2ccc(Cl)c(OC(F)F)c2)nn1
Qualitative label: 1.0

Substance smiles: Cc1cnc(OCc2cn(-c3cccc(OC(F)(F)F)c3)nn2)nc1N
Qualitative label: 1.0

Substance smiles: Cn1nccc1NCc1cn(-c2ccc(F)c(OC(F)F)c2)nn1
Qualitative label: 0.0

Substance smiles: Fc1cccnc1OCc1cn(-c2ccc(Cl)c(OC(F)F)c2)nn1
Qualitative label: 0.0

Substance smiles: CC(C)(O)c1cnc(NCc2cn(-c3ccc(F)c(C(F)F)c3)nn2)nc1
Qualitative label: 0.0

Substance smiles: COCc1ccnc(OCc2cn(-c3ccc4c(c3)CCC4)nn2)n1
Qualitative label: 0.0

----------
Below is a list of entries, each paired with its recorded IC50 value.
# System name: human GluN1/GluN2B NMDA receptors (Homo sapiens, UniProt Q05586+Q13224)
# Test: Cell-based calcium flux (FLIPR) assay on cloned human NR1/NR2B ion channels expressed in mammalian cells
# Stated conditions: standard assay; glutamate at ~EC80; FLIPR calcium flux
Result type: IC50 (µM)

Substance smiles: Cc1nc(OCc2cn(-c3ccc(F)c(C)c3F)nn2)ncc1F
Value reported: 0.152

Substance smiles: Cc1cc(-n2cc(COc3ncc(Cl)cn3)nn2)c(F)cc1F
Value reported: 1.49

Substance smiles: Fc1ccc(-n2cc(COc3ncccn3)nn2)cc1Cl
Value reported: 0.217

Substance smiles: OCc1ccnc(OCc2cn(-c3ccc(F)c(OC(F)F)c3)nn2)n1
Value reported: 0.019

Substance smiles: Cc1cnc(OCc2cn(-c3cc(C)c(F)cc3F)nn2)nc1
Value reported: 0.979

Substance smiles: CC(F)(F)c1cc(-n2cc(COc3nccc(C(F)(F)F)n3)nn2)ccc1Cl
Value reported: 0.318

Substance smiles: CNCc1ccnc(OCc2cn(-c3ccc(F)c(OC(F)F)c3)nn2)n1
Value reported: 0.672

Substance smiles: CNc1nc(OCc2cn(-c3ccc(F)c(C(C)(F)F)c3)nn2)ncc1C
Value reported: 0.128

Substance smiles: CC(C)(O)c1cnc(OCc2cn(-c3ccc(F)c(C(C)(F)F)c3)nn2)nc1
Value reported: 0.008

Substance smiles: Cc1cnc(OCc2cn(-c3ccc(F)cc3C)nn2)nc1
Value reported: 2.44

Substance smiles: CC(F)(F)c1cc(-n2cc(COc3ncccc3F)nn2)ccc1F
Value reported: 0.265

Substance smiles: Fc1ccc(-n2cc(COc3nccc(COCC(F)F)n3)nn2)cc1OC(F)F
Value reported: 0.049

Substance smiles: CCc1cnc(OCc2nnn(-c3ccc(F)c(C(C)(F)F)c3)c2C)nc1
Value reported: 0.486

Substance smiles: FC(F)c1cc(-n2cc(COc3nccc(C4CC4)n3)nn2)ccc1Cl
Value reported: 0.042

Substance smiles: COCc1ccnc(OCc2cn(-c3ccc(F)c(C)c3)nn2)n1
Value reported: 0.036

All figures here come from patent US10233173B2.
